- Tested on: NCI-H520
- Measurement Notes: relative viability (nuclei count vs DMSO), 5 days (fraction); higher = more cells survive
- Experimental Conditions: first compound 0.006325 µM
Assign labels as follows, please: Met for relative viability below 0.8; Not met for relative viability equal to or exceeding 0.8.

Study these solved cases before continuing.
[
  {
    "Molecule": "CCNC(=O)c1noc(-c2cc(C(C)C)c(O)cc2O)c1-c1ccc(CN2CCOCC2)cc1 [Luminespib] + CC1(C)CCC(c2ccc(Cl)cc2)=C(CN2CCN(c3ccc(C(=O)NS(=O)(=O)c4ccc(N[C@H](CCN5CCOCC5)CSc5ccccc5)c(S(=O)(=O)C(F)(F)F)c4)cc3)CC2)C1 [Navitoclax] (partner 0.5 µM)",
    "Class": "Not met"
  },
  {
    "Molecule": "CCNC(=O)c1noc(-c2cc(C(C)C)c(O)cc2O)c1-c1ccc(CN2CCOCC2)cc1 [Luminespib] + Cc1nc(Nc2ncc(C(=O)Nc3c(C)cccc3Cl)s2)cc(N2CCN(CCO)CC2)n1 [Dasatinib] (partner 0.075 µM)",
    "Class": "Met"
  },
  {
    "Molecule": "CCNC(=O)c1noc(-c2cc(C(C)C)c(O)cc2O)c1-c1ccc(CN2CCOCC2)cc1 [Luminespib] + CS(=O)(=O)N1CCN(Cc2cc3nc(-c4cccc5[nH]ncc45)nc(N4CCOCC4)c3s2)CC1 [Pictilisib] (partner 1 µM)",
    "Class": "Met"
  }
]

API: the following record is the query input.
[in] Here's an entry: CCNC(=O)c1noc(-c2cc(C(C)C)c(O)cc2O)c1-c1ccc(CN2CCOCC2)cc1 [Luminespib] + C[C@]1(O)C[C@@H](c2nc(-c3ccc4ccc(-c5ccccc5)nc4c3)c3c(N)nccn32)C1 [Linsitinib] (partner 1 µM) . Is its relative viability below 0.8?
[out] Not met

* * *

Listed here: items and their measured relative viability.
- Tested on: NCI-H2023
- Measurement Notes: relative viability (nuclei count vs DMSO), 5 days (fraction); higher = more cells survive
- Experimental Conditions: first compound 0.01 µM
I'd appreciate a reply containing only the number, no unit.

Some solved cases for reference:
[
  {
    "Compound": "Cc1cn(-c2cc(NC(=O)c3ccc(C)c(Nc4nccc(-c5cccnc5)n4)c3)cc(C(F)(F)F)c2)cn1 [Nilotinib] + O=C(c1cc(Cc2n[nH]c(=O)c3ccccc23)ccc1F)N1CCN(C(=O)C2CC2)CC1 [Olaparib] (partner 8 µM)",
    "relative viability": 0.599
  },
  {
    "Compound": "Cc1cn(-c2cc(NC(=O)c3ccc(C)c(Nc4nccc(-c5cccnc5)n4)c3)cc(C(F)(F)F)c2)cn1 [Nilotinib] + CS(=O)(=O)CCNCc1ccc(-c2ccc3ncnc(Nc4ccc(OCc5cccc(F)c5)c(Cl)c4)c3c2)o1 [Lapatinib] (partner 2 µM)",
    "relative viability": 0.739
  },
  {
    "Compound": "Cc1cn(-c2cc(NC(=O)c3ccc(C)c(Nc4nccc(-c5cccnc5)n4)c3)cc(C(F)(F)F)c2)cn1 [Nilotinib] + CC(=O)c1c(C)c2cnc(Nc3ccc(N4CCNCC4)cn3)nc2n(C2CCCC2)c1=O [Palbociclib] (partner 0.5 µM)",
    "relative viability": 0.457
  },
  {
    "Compound": "Cc1cn(-c2cc(NC(=O)c3ccc(C)c(Nc4nccc(-c5cccnc5)n4)c3)cc(C(F)(F)F)c2)cn1 [Nilotinib] + Nc1nc2[nH]cc(CCc3ccc(C(=O)N[C@@H](CCC(=O)O)C(=O)O)cc3)c2c(=O)[nH]1 [Pemetrexed] (partner 0.2 µM)",
    "relative viability": 0.223
  }
]

// next entry
[in] What does the record list as relative viability for Cc1cn(-c2cc(NC(=O)c3ccc(C)c(Nc4nccc(-c5cccnc5)n4)c3)cc(C(F)(F)F)c2)cn1 [Nilotinib] + N=C(N)NC(=N)NCCc1ccccc1 [Phenformin] (partner 250 µM) ?
[out] 0.571

* * *

- Test system: NCI-H2347
- Measurement Notes: relative viability (nuclei count vs DMSO), 5 days (fraction); higher = more cells survive
- Experimental Conditions: first compound 0.01 µM
Assign labels as follows, please: class 1 for relative viability below 0.6; class 0 for relative viability equal to or exceeding 0.6.

Study these solved cases before continuing.
[
  {
    "Compound": "Cc1cn(-c2cc(NC(=O)c3ccc(C)c(Nc4nccc(-c5cccnc5)n4)c3)cc(C(F)(F)F)c2)cn1 [Nilotinib] + CC(=O)Nc1cccc(-n2c(=O)n(C3CC3)c(=O)c3c(Nc4ccc(I)cc4F)n(C)c(=O)c(C)c32)c1 [Trametinib] (partner 0.02 µM)",
    "Class": "class 1"
  },
  {
    "Compound": "Cc1cn(-c2cc(NC(=O)c3ccc(C)c(Nc4nccc(-c5cccnc5)n4)c3)cc(C(F)(F)F)c2)cn1 [Nilotinib] + COc1cccc2cc(-c3nc([C@H]4CC[C@H](C(=O)O)CC4)n4ncnc(N)c34)[nH]c12 [OSI-027] (partner 0.5 µM)",
    "Class": "class 1"
  },
  {
    "Compound": "Cc1cn(-c2cc(NC(=O)c3ccc(C)c(Nc4nccc(-c5cccnc5)n4)c3)cc(C(F)(F)F)c2)cn1 [Nilotinib] + Cc1nc(Nc2ncc(C(=O)Nc3c(C)cccc3Cl)s2)cc(N2CCN(CCO)CC2)n1 [Dasatinib] (partner 0.075 µM)",
    "Class": "class 1"
  },
  {
    "Compound": "Cc1cn(-c2cc(NC(=O)c3ccc(C)c(Nc4nccc(-c5cccnc5)n4)c3)cc(C(F)(F)F)c2)cn1 [Nilotinib] + CC(=O)c1c(C)c2cnc(Nc3ccc(N4CCNCC4)cn3)nc2n(C2CCCC2)c1=O [Palbociclib] (partner 0.5 µM)",
    "Class": "class 1"
  },
  {
    "Compound": "Cc1cn(-c2cc(NC(=O)c3ccc(C)c(Nc4nccc(-c5cccnc5)n4)c3)cc(C(F)(F)F)c2)cn1 [Nilotinib] + CS(=O)(=O)N1CCN(Cc2cc3nc(-c4cccc5[nH]ncc45)nc(N4CCOCC4)c3s2)CC1 [Pictilisib] (partner 1 µM)",
    "Class": "class 0"
  },
  {
    "Compound": "Cc1cn(-c2cc(NC(=O)c3ccc(C)c(Nc4nccc(-c5cccnc5)n4)c3)cc(C(F)(F)F)c2)cn1 [Nilotinib] + Nc1ncn([C@H]2C[C@H](O)[C@@H](CO)O2)c(=O)n1 [Decitabine] (partner 2 µM)",
    "Class": "class 0"
  }
]

API: the following record is the query input.
[in] Here's an entry: Cc1cn(-c2cc(NC(=O)c3ccc(C)c(Nc4nccc(-c5cccnc5)n4)c3)cc(C(F)(F)F)c2)cn1 [Nilotinib] + N=C(N)NC(=N)NCCc1ccccc1 [Phenformin] (partner 250 µM) . Is its relative viability below 0.6?
[out] class 1

* * *

Listed here: items and their measured relative viability.
- Tested on: NCI-H1915
- Measurement Notes: relative viability (nuclei count vs DMSO), 5 days (fraction); higher = more cells survive
- Experimental Conditions: first compound 0.2 µM
I'd appreciate a reply containing only the number, no unit.

[
  {
    "Compound": "Cc1csc(=NC2CCCCC2)n1/N=C/c1ccc(O)c(O)c1O [MIM1] + Nc1nc2[nH]cc(CCc3ccc(C(=O)N[C@@H](CCC(=O)O)C(=O)O)cc3)c2c(=O)[nH]1 [Pemetrexed] (partner 0.2 µM)",
    "relative viability": 0.501
  },
  {
    "Compound": "Cc1csc(=NC2CCCCC2)n1/N=C/c1ccc(O)c(O)c1O [MIM1] + C[C@]1(O)C[C@@H](c2nc(-c3ccc4ccc(-c5ccccc5)nc4c3)c3c(N)nccn32)C1 [Linsitinib] (partner 1 µM)",
    "relative viability": 1.09
  },
  {
    "Compound": "CCNC(=O)c1noc(-c2cc(C(C)C)c(O)cc2O)c1-c1ccc(CN2CCOCC2)cc1 [Luminespib] + CS(=O)(=O)N1CCN(Cc2cc3nc(-c4cccc5[nH]ncc45)nc(N4CCOCC4)c3s2)CC1 [Pictilisib] (partner 1 µM)",
    "relative viability": 0.062
  }
]

[in] What does the record list as relative viability for CCNC(=O)c1noc(-c2cc(C(C)C)c(O)cc2O)c1-c1ccc(CN2CCOCC2)cc1 [Luminespib] + CC(=O)c1c(C)c2cnc(Nc3ccc(N4CCNCC4)cn3)nc2n(C2CCCC2)c1=O [Palbociclib] (partner 0.5 µM) ?
[out] 0.24

* * *

- System: SK-LU-1
- Measurement Notes: relative viability (nuclei count vs DMSO), 5 days (fraction); higher = more cells survive
- Experimental Conditions: first compound 0.01 µM
Quantity Kind: relative viability
I'd appreciate a reply containing only the number, no unit.

Some solved cases for reference:
[
  {
    "Molecule": "Cc1cn(-c2cc(NC(=O)c3ccc(C)c(Nc4nccc(-c5cccnc5)n4)c3)cc(C(F)(F)F)c2)cn1 [Nilotinib] + Cc1nc(Nc2ncc(C(=O)Nc3c(C)cccc3Cl)s2)cc(N2CCN(CCO)CC2)n1 [Dasatinib] (partner 0.075 µM)",
    "Subject Of Test": "SK-LU-1",
    "relative viability": 0.21
  },
  {
    "Molecule": "Cc1cn(-c2cc(NC(=O)c3ccc(C)c(Nc4nccc(-c5cccnc5)n4)c3)cc(C(F)(F)F)c2)cn1 [Nilotinib] + Nc1nc2[nH]cc(CCc3ccc(C(=O)N[C@@H](CCC(=O)O)C(=O)O)cc3)c2c(=O)[nH]1 [Pemetrexed] (partner 0.2 µM)",
    "Subject Of Test": "SK-LU-1",
    "relative viability": 0.949
  },
  {
    "Molecule": "Cc1cn(-c2cc(NC(=O)c3ccc(C)c(Nc4nccc(-c5cccnc5)n4)c3)cc(C(F)(F)F)c2)cn1 [Nilotinib] + CS(=O)(=O)CCNCc1ccc(-c2ccc3ncnc(Nc4ccc(OCc5cccc(F)c5)c(Cl)c4)c3c2)o1 [Lapatinib] (partner 2 µM)",
    "Subject Of Test": "SK-LU-1",
    "relative viability": 1.08
  }
]

[in] Return relative viability measured with SK-LU-1 given this molecule: Cc1cn(-c2cc(NC(=O)c3ccc(C)c(Nc4nccc(-c5cccnc5)n4)c3)cc(C(F)(F)F)c2)cn1 [Nilotinib] + O=C(c1cc(Cc2n[nH]c(=O)c3ccccc23)ccc1F)N1CCN(C(=O)C2CC2)CC1 [Olaparib] (partner 8 µM)
[out] 0.541

[in] Return relative viability measured with SK-LU-1 given this molecule: Cc1cn(-c2cc(NC(=O)c3ccc(C)c(Nc4nccc(-c5cccnc5)n4)c3)cc(C(F)(F)F)c2)cn1 [Nilotinib] + Cc1cc(Nc2cc(N3CCN(C)CC3)nc(Sc3ccc(NC(=O)C4CC4)cc3)n2)n[nH]1 [Tozasertib] (partner 0.1 µM)
[out] 0.287
